Below is a list of entries, each paired with its recorded protein stability index value.
B1: NEK8 (parent)
chain: VVGTPCYISPELCEGKPYNQKSDI

Variants of: B1
experiment: protein stability index of a GFP-peptide fusion (GPS, HEK-293T) (PSI 1-6); higher = more stable;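 note: lentivirally expressed fusions sorted by FACS into six bins by GFP to DsRed ratio, PSI derived from sequencing read proportions per bin multiplied by bin number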
condition-notes: c terminus: a fixed tail appended
Kindly provide the number alone.

In the examples that follow, each entry is paired with its recorded protein stability index.
Y7Q :: 4.35
P10F :: 2.03
Y7F :: 3.05
T4P :: 3.46
E11Y :: 2.05
L12G :: 4.29
P10H :: 3.66
D23E :: 2.47

Input: Note down protein stability index recorded for G3N
Output: 3.52

Input: Note down protein stability index recorded for I8A
Output: 4.4

Input: Note down protein stability index recorded for E11T
Output: 2.48

Input: Note down protein stability index recorded for E14L
Output: 2.67

Input: Note down protein stability index recorded for Q20Y
Output: 2.14

Input: Note down protein stability index recorded for Y7H
Output: 3.87

Input: Note down protein stability index recorded for I8Y
Output: 2.31
